measuredOn: T1, full-length human SIRPβ1 (NP_006056.2) on cells (human, UniProt O00241 30-398)
T1 construct: also called β1 WT
procedureSummary: flow cytometry, U937 SIRPα-KO transfectants
valueKind: pEC50
Hey, just a heads up that pEC50 is the negative log base 10 of the concentration in molar.

Data request: Look up pEC50 for this binder: Antibody C (antibody, human IgG1, kappa, L234A L235A, V domains shown) VH: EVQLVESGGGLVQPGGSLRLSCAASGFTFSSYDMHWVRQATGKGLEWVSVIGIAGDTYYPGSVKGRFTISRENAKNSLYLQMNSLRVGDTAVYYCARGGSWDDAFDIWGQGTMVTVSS VL: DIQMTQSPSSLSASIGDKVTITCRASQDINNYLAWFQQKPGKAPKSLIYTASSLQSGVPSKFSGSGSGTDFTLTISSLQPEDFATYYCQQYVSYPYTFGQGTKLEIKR
Data returned: 9.30

Origin of the recorded values: patent US20230012273A1
